Test: in vivo
Conditions: male, Plasma Concentration (μM), 50 mg/kg, Day 7

{"COMPOUND": "CCCCN1CCC(N(Cc2ccccc2)C(=O)Nc2ccc(Cl)c(Cl)c2)CC1 [A7]", "concentration at 7 day": "1.7 µM"}

* * *

Experiment: in vivo
Conditions: male, Plasma Concentration (μM), 100 mg/kg, Day 3

{"STRUCTURE SMILES STRING": "CCCCN1CCC(N(Cc2ccccc2)C(=O)Nc2ccc(Cl)c(Cl)c2)CC1", "UNITS SYMBOL": "µM", "concentration at 3 day": 2.4}

* * *

Biological target: DCN1-UBC12 interaction (Homo sapiens (Human), UniProt Q96GG9)
Sequence (Q96GG9 60-248 limits assumed): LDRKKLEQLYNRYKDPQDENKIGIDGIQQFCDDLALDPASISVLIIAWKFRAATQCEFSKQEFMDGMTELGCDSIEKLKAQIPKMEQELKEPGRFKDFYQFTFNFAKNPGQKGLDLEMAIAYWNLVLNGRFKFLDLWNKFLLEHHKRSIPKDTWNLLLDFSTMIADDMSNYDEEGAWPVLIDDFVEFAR
Assay: biochemical
Type: binding
Conditions: read-out: TR-FRET IC50
# log10 IC50 values compiled below
ASSAY METRIC: log10 IC50 (log10 of the value in nM)

{"COMPOUND": "CCCCN1C(C)CC(N(Cc2ccccc2)C(=O)Nc2cccc(C(F)(F)F)c2)CC1C (stereo not drawn)", "REPORTED VALUE": 2.77}
{"COMPOUND": "CCCC(C)N1CCC(N(Cc2ccccc2)C(=O)Nc2cccc(Cl)c2Cl)CC1 (stereo not drawn)", "REPORTED VALUE": 3.24}
{"COMPOUND": "CCCN1CCC(N(Cc2ccco2)C(=O)Nc2cccc(C(F)(F)F)c2)CC1", "REPORTED VALUE": 2.90}
{"COMPOUND": "CCCC(C)N1CCC(N(Cc2ccccc2)C(=O)Nc2ccc(I)cc2)CC1 (stereo not drawn)", "REPORTED VALUE": 1.54}
{"COMPOUND": "CCN1CCC(N(Cc2ccco2)C(=O)Nc2cccc(C(F)(F)F)c2)CC1", "REPORTED VALUE": 3.59}
